Recorded values, source PubChem BioAssay.

assay.system: Left-right determination factor 2 (Homo sapiens)
assay.comment: small molecules binding LEFTY2 protein – biochemical, small-molecule microarray, 635 nm fluorescence scan, primary screen (AID 1110)
test.conditions: higher = more signal
property.name: composite z-score
The answer should be written as a number, with no unit following it.

Kindly note the recorded composite z-score for C=CC[C@@]1(C(=O)NCCCOC)N=C(c2ccc(OCCCO)cc2)O[C@@H]1c1ccccc1 , which is -0.526

###

assay.comment: forskolin-driven CRE-LacZ activity in PC12 – cell-based, CRE-LacZ reporter, forskolin-stimulated, primary screen (AID 1146);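 note: PC12 cells with 6xCRE LacZ reporter stimulated by forskolin 10 µM; beta-galactosidase reporter signal reflecting CREB driven transcription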
test.conditions: luminescence, 4.5 h, higher = more signal, called active from +8 up or from −8 down
property.name: z-score
Just the number, please.

The recorded z-score for entry COC(=O)C/C=C/C[C@]1(O)C(=O)N(C)c2ccccc21 equals -1.55

Briefly, z-score measured for CCCCCCc1nc(Cc2cc(OC)c(OC)c(OC)c2)cc2c1[Si](C(C)C)(C(C)C)OC2 : -0.419

Notebook: C[C@@H]1NC(=O)[C@@H](Cc2ccccc2)NC(=O)[C@@]23C(=O)N[C@@H](Cc4ccccc4)C2[C@H](C)[C@@]2(C)O[C@H]2C3/C=C/C/C=C\CNC1=O (some centres undefined) , z-score read as 0.272

Summary for this compound, O=C1[C@H]2C=C(I)[C@H](C[C@@H]2OCCOCCO)[C@@]12CO2 : z-score is 0.839

Record summary for CC1CC/C=C\[C@H]2OC34C=CCN(c5ccc6ccccc6c5)C(=O)[C@H]3N(CCCO)C(=O)[C@@H]4C2C(=O)O1 (some centres undefined) : reported z-score = 0.234

Recorded result, CC(C)[Si]1(C(C)C)OCc2cc(-c3ccc(-c4ccc(Cl)c(Cl)c4)o3)nc(-c3ccccc3)c21 , z-score: -0.272
